# System: MDA-MB-435 melanoma
# testName: NCI-60 one-dose screen, 48 h
# reportedConditions: 10 µM unless noted
The panel holds about 83,000 compounds, 20% with a hit somewhere; the sample as a whole holds those more often. Active and inactive are the calls of the source. The calls were made as follows: active = growth percent below 10; inactive = the rest.
Please answer using one outcome listed in Y = active, N = inactive

compound	studyTarget	assignedCategory
CC1CCC(C(C)C)C(NN)C1 (configuration not stated)	MDA-MB-435 melanoma	N
O=C(O)c1ccc2nc(-c3ccc(OCCCCCOc4ccc(-c5nc6ccc(C(=O)O)cc6[nH]5)cc4)cc3)[nH]c2c1	MDA-MB-435 melanoma	N
CSc1ccc(C(=O)C[n+]2cccc(C)c2)cc1	MDA-MB-435 melanoma	N
N#CC(C#N)=C(C#N)c1c[nH]c2ccccc12	MDA-MB-435 melanoma	N
COc1ccccc1P(c1ccccc1OC)c1ccccc1OC	MDA-MB-435 melanoma	N
CN1CCN(Cn2nc(-c3cc(Cl)cc(Cl)c3Cl)n(/N=C/c3ccc(Cl)cc3)c2=S)CC1	MDA-MB-435 melanoma	N
O=c1nc(N2CCOCC2)oc2c(-c3cccc4ccccc34)cccc12	MDA-MB-435 melanoma	N
CC(C)C(=O)Nc1nc2c(s1)CCCc1ccn(S(=O)(=O)c3ccccc3)c1-2	MDA-MB-435 melanoma	N

Could you please tell me the result logged for CCc1c2cc(Cl)ccc2n2cc(Cc3ccccc3)[nH]c(=O)c12 in this assay?
N

GET /call?item= O=C(C[n+]1ccccc1Cl)c1ccc2c(c1)CCCC2 returns the recorded outcome of this test.
N

Per the assay record, what outcome was assigned to COc1cc(NC(=O)C#Cc2ccccc2)c(OC)cc1Cl ?
N

Outcome logged for O=C(Cn1c2ccccc2c2ccncc21)N/N=C\c1ccc2ccccc2c1 in this assay:
N

Call for entry O=C(COc1ccc(Cl)cc1Cl)N1N=C(c2ccc(Cl)cc2Cl)CC1(O)c1cc(F)c(Cl)cc1Cl (configuration not stated) :
N

What classification did CC(=S)Nc1ccccc1 end up with in this test?
N

What outcome does the record of this test show for O=C(Nc1cccc(-n2ccc3c(NC(=O)c4ccccc4)nccc32)c1)c1cc(N2CCOCC2)cc(C(F)(F)F)c1 ?
Y

# lookup: test call for Nc1nc(=S)ss1
N

Please let me know the test result on file for O=S(=O)(O)c1ccc(F)cc1 .
N

So what was the verdict on CCOc1ccc(NC2=C(Cl)C(=O)c3ccccc3C2=O)cc1 in this test?
N

What did this assay record as the result for COc1cc(Cn2cc3c(c2)-c2onc(CO)c2CC3)cc(OC)c1OC ?
N

Would you mind telling me which call this test gave COc1cc2c(cc1OC)-c1c(oc3c4c(ccc3c1=O)OC(C)(C)C=C4)CO2 ?
N

Could you kindly confirm the outcome this assay logged for CCCCCCCCN(CCCCCCCC)CC(O)c1cc(-c2ccccc2)nc2ccc(OC)cc12 (configuration not stated) ?
N

// param item: OC[C@@H](O)C(O[C@@H]1O[C@H](CO)[C@H](O)[C@H](O)[C@H]1O)[C@H](O)[C@@H](O)CO (some centres not stated) ; yields the recorded call
N
